# Tested on: MOLT-4 leukemia
# ASSAY PROCEDURE: NCI tumour cell line growth inhibition, 48 h
List of TGI values.

Below, each entry is followed by its recorded TGI result.
COMPOUND	TGI
O=C1c2ccccc2C(=O)N1c1nc(-c2ccc(Cl)cc2)cc(N2N=C(c3ccc(Br)cc3)CC2c2ccccc2)n1 (centres undefined)	> 23.7 µM
NC1=NCC(CN2CCCC2)O1 (centres undefined)	> 100 µM
O=c1c2ccccc2oc2ccc(OCCCCCCN3CCCCCC3)cc12	6.29 µM

Reported TGI of COc1cc2cc3c4c(cc(OC)c(OC)c4c2cc1OC)CCN3C(=O)CCC(=O)NCCCN(C)C : > 100 µM
